Form field: CC50 at 24 h (one value per entry).
test: in vitro; conditions: rat, gh3-tre-luc cells, AC50 (uM) modified / 1000
Structures can show the parent of a compound that is named as a salt.

- compound: "Cc1ccc(-c2c(Cl)nc(C#N)n2S(=O)(=O)N(C)C)cc1"
  CC50 at 24 h: "40.3 µM"
- compound: "Nc1ccc(N=Nc2ccccc2)cc1"
  CC50 at 24 h: "> 90 µM"
- compound: "CCN1CCC[C@H]1CNC(=O)c1cc(S(N)(=O)=O)ccc1OC [Levosulpiride]"
  CC50 at 24 h: "> 50 µM"
- compound: "C=CCCC(=O)/C=C/C1C(C)=CCCC1(C)C (stereo not shown)"
  CC50 at 24 h: "80.7 µM"
- compound: "CC(NC(C)(C)C)C(=O)c1cccc(Cl)c1 (stereo not shown) [Bupropion hydrochloride]"
  CC50 at 24 h: "> 50 µM"
- compound: "Oc1ccc(Cl)c2c1CCC2"
  CC50 at 24 h: "> 50 µM"
- compound: "CN(C/C=C/C#CC(C)(C)C)Cc1cccc2ccccc12"
  CC50 at 24 h: "38.3 µM"
- compound: "O=C(O)C1=C(CSc2nnnn2CS(=O)(=O)O)CS[C@@H]2[C@H](NC(=O)[C@H](O)c3ccccc3)C(=O)N12 [Cefonicid sodium]"
  CC50 at 24 h: "> 50 µM"
- compound: "CC(C)Cc1ccc(C(C)C(=O)O)cc1 (stereo not shown)"
  CC50 at 24 h: "> 90 µM"
- compound: "CC(C)(C)NC(N)=O"
  CC50 at 24 h: "> 90 µM"

###

test: in vitro; details: rat, gh3-tre-luc cells, AC50 (uM) modified / 1000

- cpdSmiles: "c1ccc(-n2cnnn2)cc1"
  CC50 at 24 h: "> 50 µM"
- cpdSmiles: "Oc1ccc(Cl)c2cccnc12"
  CC50 at 24 h: "7.71 µM"
- cpdSmiles: "Cc1ccnc(NS(=O)(=O)c2ccc(N)cc2)n1"
  CC50 at 24 h: "> 20 µM"
- cpdSmiles: "COc1ccccc1[N+](=O)[O-]"
  CC50 at 24 h: "> 90 µM"

###

Form field: CC50 at 24 h (one value per entry).
experiment: in vitro; settings: rat, gh3-tre-luc cells, AC50 (uM) modified / 1000
Where a name gives a salt, the structure may show the parent alone.

- molecule: "Nc1ccc(F)cc1F"
  CC50 at 24 h: "> 90 µM"
- molecule: "Nc1ccc(O)c(N)c1 [2,4-Diaminophenol dihydrochloride]"
  CC50 at 24 h: "41.5 µM"
- molecule: "CC(C)OC(=O)c1cc2c(OCC(O)CNC(C)(C)C)cccc2[nH]1 (stereo not drawn)"
  CC50 at 24 h: "36.9 µM"
- molecule: "c1ccc2c(c1)Nc1ccccc1S2"
  CC50 at 24 h: "> 90 µM"
- molecule: "CC(C)CCCCCCc1ccc(OCCOCCO)cc1"
  CC50 at 24 h: "> 100 µM"
- molecule: "CN(C)c1cc(NC(=O)CNC(C)(C)C)c(O)c2c1C[C@H]1C[C@H]3[C@H](N(C)C)C(O)=C(C(N)=O)C(=O)[C@@]3(O)C(O)=C1C2=O"
  CC50 at 24 h: "> 50 µM"
- molecule: "CN(C)CCN(C)CCN(C)C"
  CC50 at 24 h: "> 90 µM"
- molecule: "O=C(N[C@@H](Cc1ccccc1)[C@@H](O)C(=O)N1C[C@@H](O)[C@@H](O)C1)c1cc2cc(Cl)ccc2[nH]1"
  CC50 at 24 h: "78.2 µM"
- molecule: "CCO[Si](CCC1CCC2OC2C1)(OCC)OCC (stereo not drawn)"
  CC50 at 24 h: "> 90 µM"

###

test: in vitro; settings: rat, gh3-tre-luc cells, AC50 (uM) modified / 1000
Structures can show the parent of a compound that is named as a salt.

- compound: "C/C(=C(\\CCO)SS/C(CCO)=C(/C)N(C=O)Cc1cnc(C)nc1N)N(C=O)Cc1cnc(C)nc1N [Thiamine disulfide]"
  CC50 at 24 h: "> 50 µM"
- compound: "COc1cc(Nc2c(C#N)cnc3cc(OCCCN4CCN(C)CC4)c(OC)cc23)c(Cl)cc1Cl [Bosutinib methanoate]"
  CC50 at 24 h: "8.85 µM"
- compound: "CCCCCCC(O)CO (stereo not shown)"
  CC50 at 24 h: "> 90 µM"
- compound: "CNc1ncnc2nc[nH]c12"
  CC50 at 24 h: "> 90 µM"
- compound: "CN1CCc2cccc3c2[C@H]1Cc1ccc(O)c(O)c1-3 [Apomorphine hydrochloride hydrate]"
  CC50 at 24 h: "48.2 µM"
- compound: "CCN(CC)CCNC(=O)c1cc(S(C)(=O)=O)ccc1OC [Tiapride hydrochloride]"
  CC50 at 24 h: "> 20 µM"
- compound: "CN(C)c1ccc(N=O)cc1"
  CC50 at 24 h: "5.44 µM"
- compound: "CCCCCCOC(=O)c1ccccc1 [Hexyl benzoate]"
  CC50 at 24 h: "> 90 µM"
- compound: "C=C(C)C(=O)OCCOC(=O)C(=C)C [Ethylene glycol dimethacrylate]"
  CC50 at 24 h: "> 90 µM"
- compound: "CCc1cc(S(=O)(=O)O)c2cc(C(C)C)cccc1-2 [Egualen sodium]"
  CC50 at 24 h: "> 50 µM"
- compound: "O=C1C(I)=CC(=C(c2cc(I)c(O)c(I)c2)c2ccccc2C(=O)O)C=C1I [Iodophthalein sodium]"
  CC50 at 24 h: "41.3 µM"
- compound: "c1ccc(Nc2ccc3ccccc3c2)cc1"
  CC50 at 24 h: "47.3 µM"
- compound: "CCNC(=O)/C=C/c1cccc(Br)c1 [Cinromide]"
  CC50 at 24 h: "> 50 µM"

###

assay: in vitro; settings: rat, gh3-tre-luc cells, AC50 (uM) modified / 1000
Counter-ions that a name gives are not always drawn.
Form field: CC50 at 24 h (one value per entry).
assayMetric: CC50 at 24 h

- compound: "COc1ccc2c3c1O[C@H]1[C@H](O)CC[C@H]4[C@@H](C2)N(C)CC[C@@]341 [Dihydroisocodeine]"
  testResult: "> 90 µM"
- compound: "NS(=O)(=O)C(F)(F)C(F)(F)C(F)(F)C(F)(F)C(F)(F)C(F)(F)C(F)(F)C(F)(F)F [Perfluorooctanesulfonamide]"
  testResult: "52.8 µM"
- compound: "C[C@@H]1O[C@@H](O[C@H]2C[C@@H](O)[C@]3(CO)[C@H]4[C@H](O)C[C@]5(C)[C@@H](C6=CC(=O)OC6)CC[C@]5(O)[C@@H]4CC[C@]3(O)C2)[C@H](O)[C@H](O)[C@H]1O [Ouabain]"
  testResult: "> 80 µM"
- compound: "CCN(CC)c1ccc2c(-c3ccc(S(=O)(=O)O)cc3S(=O)(=O)[O-])c3ccc(=[N+](CC)CC)cc-3oc2c1 [C.I. Acid Red 52]"
  testResult: "13.4 µM"
- compound: "CCCCS(=O)(=O)N[C@@H](Cc1ccc(OCCCCC2CCNCC2)cc1)C(=O)O [Tirofiban hydrochloride monohydrate]"
  testResult: "> 50 µM"
- compound: "CCCCCCCCCCCCCCCC(=O)O[C@@H]1CC(C)=C(/C=C/C(C)=C/C=C/C(C)=C/C=C/C=C(C)/C=C/C=C(C)/C=C/C2=C(C)C[C@@H](OC(=O)CCCCCCCCCCCCCCC)CC2(C)C)C(C)(C)C1 [Physalien]"
  testResult: "> 50 µM"
- compound: "O=C(O)c1cccc(Cl)n1 [6-Chloro-2-picolinic acid]"
  testResult: "> 90 µM"

###

Form field: CC50 at 24 h (one value per entry).
assay: in vitro; conditions: rat, gh3-tre-luc cells, AC50 (uM) modified / 1000
Where a name gives a salt, the structure may show the parent alone.
assayMetric: CC50 at 24 h

- molecule: "Nc1ccc(S(=O)(=O)c2ccc(N)cc2)cc1"
  testResult: "> 50 µM"
- molecule: "C[C@H](N)[C@H](O)c1cccc(O)c1 [Metaraminol bitartrate]"
  testResult: "> 20 µM"
- molecule: "On1nnc2ccccc21 [1-Hydroxybenzotriazole]"
  testResult: "> 90 µM"
- molecule: "CCOc1ccc2c(c1)C(C)CC(C)(C)N2 (stereo not shown)"
  testResult: "> 90 µM"
- molecule: "CC1(C)C(C=C(Cl)Cl)C1C(=O)OCc1cccc(Oc2ccccc2)c1 (stereo not shown)"
  testResult: "> 90 µM"
- molecule: "c1ccc(CNCCNCc2ccccc2)cc1"
  testResult: "> 50 µM"
- molecule: "CC(=O)O[C@@H]1C[C@H]2CC[C@]1(C)C2(C)C [Isobornyl acetate]"
  testResult: "> 90 µM"
- molecule: "CCC(C)(C)C1CCCCC1OC(C)=O (stereo not shown) [2-(2-Methylbutan-2-yl)cyclohexyl acetate]"
  testResult: "> 90 µM"
- molecule: "O=c1[nH]c2ccccc2n1CCCN1CCN(C(c2ccccc2)c2ccccc2)CC1 [Oxatomide]"
  testResult: "20.3 µM"
- molecule: "OC(Cn1cncn1)(Cn1cncn1)c1ccc(F)cc1F"
  testResult: "> 90 µM"
- molecule: "C=O"
  testResult: "> 100 µM"
- molecule: "O=C(c1ccc(O)cc1)c1ccc(O)cc1"
  testResult: "> 90 µM"
- molecule: "O=C1CCC(=O)O1 [Succinic anhydride]"
  testResult: "> 90 µM"
- molecule: "O=P(O)(OCc1ccccc1)OCc1ccccc1 [Dibenzyl phosphate]"
  testResult: "> 90 µM"
- molecule: "COc1ccc(/C=C/C(=O)OCCC(C)C)cc1 [Amiloxate]"
  testResult: "> 50 µM"
- molecule: "CN(C)c1ccc(C=O)cc1"
  testResult: "> 90 µM"
- molecule: "CC(=O)N(CC(O)CO)c1c(I)c(C(=O)NCC(O)CO)c(I)c(C(=O)NCC(O)CO)c1I (mixture of isomers) [Iohexol]"
  testResult: "> 50 µM"
- molecule: "O=C(COc1ccc(Cl)cc1)N1CCN(Cc2ccc3c(c2)OCO3)CC1 [Fipexide hydrochloride]"
  testResult: "66.7 µM"
- molecule: "CC(C)C(O)C(C)(C)CO (stereo not shown)"
  testResult: "> 90 µM"
- molecule: "CCCC1COC(Cn2cncn2)(c2ccc(Cl)cc2Cl)O1 (stereo not shown)"
  testResult: "61 µM"
- molecule: "CCC(C(=O)NC(=O)NC(C)=O)c1ccccc1 (stereo not shown) [Acetylpheneturide]"
  testResult: "> 50 µM"
- molecule: "CCCn1cc[n+](C)c1 [1-Methyl-3-propylimidazolium iodide]"
  testResult: "> 90 µM"
- molecule: "C=CN1CCCC1=O"
  testResult: "> 90 µM"
- molecule: "OCCOCCO"
  testResult: "> 90 µM"
- molecule: "C=CCCCCCCCCCCC"
  testResult: "> 5 µM"

Taken from paper PMC6792352.
